System: NCI/ADR-RES ovarian
Procedure summary: NCI-60 one-dose screen, 48 h (100 = growth as untreated, 0 = no growth, -100 = all killed)
Condition info: 10 µM unless noted
Protocol: Growth inhibition of the NCI/ADR-RES human […] tumor cell line is measured as a screen for anti-cancer activity. Cells are grown in 96 well plates and exposed to the test compound for 48 hours. Compounds are tested at a single concentration, which is 10^-5 M for most compounds. The reported endpoint is percent growth (GI% or GIPRCNT), where numbers from 0 - 100% represent growth inhibition, and numbers from -100% - 0 represent cell death. For example, a value of 40 represents 60% growth inhibition. […]
Compounds without any hit were thinned out: in the full panel of roughly 83,000, 20% have a hit.
Strictly below 40% in growth: 1 (yes). Otherwise: 0 (no).

Line notation: CC(=O)c1c(C)[nH]c(-c2nc3ccc(N4CCN(C)CC4)cc3[nH]2)c1-c1ccc(OCC2CCOCC2)cc1
System under test: NCI/ADR-RES ovarian
Label: 1 (yes)
//
Line notation: CCSc1sc(-c2ccc(C)cc2)nc1[P+](c1ccccc1)(c1ccccc1)c1ccccc1
System under test: NCI/ADR-RES ovarian
Label: 1 (yes)
//
Line notation: C=C1CC[C@@H](C(=O)OC)Cc2nc(C)ccc21
System under test: NCI/ADR-RES ovarian
Label: 0 (no)
//
Line notation: Cn1cc(-c2csc(-c3cn(CCNC(=O)OC(C)(C)C)c4ccc(F)cc34)n2)c2cccnc21
System under test: NCI/ADR-RES ovarian
Label: 0 (no)
//
Line notation: CC(=O)OCCCCCCn1c2ccccc2c2c3c(c4c5ccccc5n(C)c4c21)C(=O)N(O)C3=O
System under test: NCI/ADR-RES ovarian
Label: 0 (no)
//
Line notation: Cn1cc(-c2csc(-c3c[nH]c4ccccc34)n2)c2cccnc21
System under test: NCI/ADR-RES ovarian
Label: 1 (yes)
//
Line notation: COc1cc(-c2cc3ncccc3c3nc(N)c4cccnc4c23)cc(OC)c1OC
System under test: NCI/ADR-RES ovarian
Label: 1 (yes)
//
Line notation: C=C1C(=O)O[C@H]2[C@H]1CC/C(COC(=O)NCCc1c[nH]c3ccccc13)=C\CC[C@@]1(C)O[C@@H]21
System under test: NCI/ADR-RES ovarian
Label: 0 (no)
//
Line notation: Cc1cc(N2CCCC2)nc(N(CCNc2ccnc3cc(Cl)ccc23)Cc2ccco2)n1
System under test: NCI/ADR-RES ovarian
Label: 1 (yes)

---

Test system: K-562 leukemia
Procedure summary: NCI-60 one-dose screen, 48 h
Condition info: 10 µM unless noted
The panel holds about 83,000 compounds, 20% with a hit somewhere; the sample as a whole holds those more often. Calls of active or inactive are those of the source. Rule for the calls: active = growth percent below 10; inactive = the rest.
Outcomes: active, inactive

Compound: Cn1cc(-c2csc(-c3cn(C(=O)OC(C)(C)C)c4ccccc34)n2)c2cccnc21
Label: inactive

Compound: CC(C)(C)c1[nH]nc2c1C(c1cc3ccccc3[nH]c1=O)Nc1cc(C(=O)OCc3ccccc3)ccc1N2 (stereo unspecified)
Label: inactive

Compound: COC(=O)[C@]12CC[C@@H](C)[C@H](C)[C@@H]1C1=CC[C@@H]3[C@@]4(C)C[C@@H](OC(C)=O)[C@H](O)[C@@](C)(CO)[C@@H]4[C@H](O)C[C@@]3(C)[C@]1(C)CC2
Label: active

Compound: CC1(C)C=CC[C@]2(C)[C@H]3CC[C@@H]4[C@H]5[C@H](C(=O)/C=C/c6cccnc6)CC[C@]5(CO)CC[C@@]4(C)[C@]3(C)CC[C@@H]12
Label: active

Compound: OCC12CCCC(CO)(COC1)C2O (stereo unspecified)
Label: inactive

Compound: COc1ccc2c(c1)c(-c1nc(-c3cn(C)c4ncccc34)cs1)cn2CCN
Label: inactive

Compound: COc1cnc2c(c1)C(=O)c1c-2n(CCCN2CCN(CCO)CC2)c(=O)c2cc([N+](=O)[O-])ccc12
Label: active

Compound: CC/C(=N/NC(N)=O)c1ccccc1
Label: inactive

Compound: Cc1cc(N2CCN(C)CC2)nc(N(CCNc2ccnc3cc(Cl)ccc23)Cc2ccco2)n1
Label: active

Compound: Fc1ccc2[nH]cc(-c3nc(-c4c[nH]c5ncccc45)cs3)c2c1
Label: inactive

Compound: Cc1ccc2[nH]cc(-c3nc(-c4cn(C)c5ncccc45)cs3)c2c1
Label: inactive

Compound: O=C(CCCCCn1c2ccccc2c2c3c(c4c5ccccc5[nH]c4c21)C(=O)N(O)C3=O)N1CCOCC1
Label: inactive

Compound: C=C1C(=O)O[C@H]2[C@H]1CC/C(Cn1cc(-c3ccc(F)cc3)nn1)=C\CC[C@@]1(C)O[C@@H]21
Label: active

Compound: CN1CCN(CCOc2ccc(-c3cnc4c(-c5cccc(F)c5)cnn4c3)cc2)CC1
Label: active

Compound: COc1ccc2[nH]cc(-c3nc(-c4c[nH]c5ncccc45)cs3)c2c1
Label: inactive

Compound: CCCCC[C@H]1CC=C2C(=O)C=C[C@@H]2CC=CCCCC(=O)O[C@@H](CCCCC)CC=C2C(=O)C=C[C@@H]2CC=CCCCC(=O)O[C@@H](CCCCC)CC=C2C(=O)C=C[C@@H]2CC=CCCCC(=O)O1
Label: active

Compound: Cn1cc(-c2nc(-c3c[nH]c4ncccc34)cs2)c2cc(Cl)ccc21
Label: active

Compound: COC(=O)[C@]12CC[C@@H](C(=O)/C=C/c3cccnc3)[C@@H]1[C@H]1CC[C@@H]3[C@@]4(C)C/C(=C/c5cccnc5)C(=O)C(C)(C)[C@@H]4CC[C@@]3(C)[C@]1(C)CC2
Label: active

Compound: Cc1cc(C)c(NC(=O)c2sc3nc4c(cc3c2N)CCCC4)c(C)c1
Label: inactive

Compound: CC(C)(C)c1ccc(OP(=S)(N/N=C/c2ccccc2O)Oc2ccc(C(C)(C)C)cc2)cc1
Label: inactive

Compound: Cc1nc([P+](c2ccccc2)(c2ccccc2)c2ccccc2)c(Sc2sc(-c3ccccc3)nc2[P+](c2ccccc2)(c2ccccc2)c2ccccc2)o1
Label: active

Compound: COc1cc(-c2cc3cc(O)ccc3oc2=O)cc(OC)c1OC
Label: inactive

Compound: CN1CCN(c2nc(-c3csc(-c4cccs4)n3)cc3ccccc23)CC1
Label: active

Compound: COc1ccc2c(c1)C/C(=C\c1cc(-c3ccc4c(c3)OCO4)n[nH]1)C2=O
Label: inactive

Compound: COc1ccc(O)c(-c2cc(-c3ccc(Cl)cc3)c(C#N)c(=O)[nH]2)c1
Label: inactive

Compound: Cc1ccccc1-c1nc(C(Cl)Cl)nc2cc(-c3ccccc3)nn12
Label: inactive

Compound: COc1cccc(-c2nn(-c3ccccc3)cc2-c2ccnc(NCCNS(=O)(=O)c3ccccc3)c2)c1
Label: active

Compound: [B-][N+](CC)(CC)c1ccccc1
Label: inactive

Compound: CC(Cc1ccco1)C(=O)NC(N)=O (stereo unspecified)
Label: inactive

Compound: CCN(CC)C(=O)CCCCCn1c2ccccc2c2c3c(c4c5ccccc5[nH]c4c21)C(=O)N(O)C3=O
Label: inactive

Compound: O=C(N/N=C\c1ccccc1O)C1CC1
Label: inactive

Compound: Oc1cc(/C=C/c2nc(N3CCOCC3)c3cc(Cl)c(Cl)cc3n2)cc(O)c1O
Label: inactive

Compound: C/C(=N/NC(N)=S)C(=O)O
Label: inactive

Compound: CC1(C)C(=O)/C(=C\c2ccccn2)C[C@]2(C)[C@H]3CC[C@@H]4[C@@H](C(=O)/C=C/c5ccccn5)CC[C@@]4(C)[C@]3(C)CC[C@@H]12
Label: active

Compound: CC(C)c1cc(C(=O)O)c(O)c(C(C)C)c1.CC(C)c1cc(C(=O)O)c(O)c(C(C)C)c1.[Mn]
Label: inactive

Compound: CCCCCCCCNc1cccc2c1C(=O)c1ccccc1C2=O
Label: inactive

---

growth: recorded values
Tested on: HT29 colon
Procedure summary: NCI-60 one-dose screen, 48 h (100 = growth as untreated, 0 = no growth, -100 = all killed)
Condition info: 10 µM unless noted
About 83,000 compounds went through this panel and 20% of them were active in at least one assay; those are over-represented in the sample as a whole.
Measured metric: growth (%)

Molecule: c1ccc2[nH]c(-c3cc(-c4ccc5c(c4)OCO5)n[nH]3)nc2c1
Measured metric: growth
Readout number: 67.5
//
Molecule: Cn1cc(-c2csc(-c3cn(C(=O)OC(C)(C)C)c4ccccc34)n2)c2cccnc21
Measured metric: growth
Readout number: 13
//
Molecule: COc1ccc(/C=C/C(=O)NCC(C)O)cc1 (stereo not given)
Measured metric: growth
Readout number: 95.1
//
Molecule: Nc1nc(N)c2nc3c(nc2n1)CCCCCCCCCC3
Measured metric: growth
Readout number: 35.6
//
Molecule: Cc1ccnc2c(OCc3ccccc3)cccc12
Measured metric: growth
Readout number: 99.4
//
Molecule: COc1ccc(C2=NN(c3nc(-c4ccc(OC)cc4)c(C#N)c(=O)n3C)C(=O)CC2)cc1
Measured metric: growth
Readout number: 109
//
Molecule: c1ccc2[nH]c(-c3ccc(Nc4nc(N5CCCCC5)nc(N5CCOCC5)n4)cc3)nc2c1
Measured metric: growth
Readout number: -28.2
//
Molecule: CN1CCN(c2ccc3nc(-c4[nH]ncc4Nc4ncnc5[nH]ccc45)[nH]c3c2)CC1
Measured metric: growth
Readout number: 7.01
//
Molecule: Nc1c(C(=O)Nc2c(Cl)cccc2Cl)sc2nc3c(cc12)C(=O)CCC3
Measured metric: growth
Readout number: 13.3
//
Molecule: COc1ccc(-c2nc(SCC(=O)Nc3ccc(C(C)=O)cc3)[nH]c(=O)c2C#N)cc1
Measured metric: growth
Readout number: 101
